Study target: Cif (Pseudomonas aeruginosa (strain UCBPP-PA14), UniProt A0A0H2ZD27)
Sequence (A0A0H2ZD27 25-319 limits assumed): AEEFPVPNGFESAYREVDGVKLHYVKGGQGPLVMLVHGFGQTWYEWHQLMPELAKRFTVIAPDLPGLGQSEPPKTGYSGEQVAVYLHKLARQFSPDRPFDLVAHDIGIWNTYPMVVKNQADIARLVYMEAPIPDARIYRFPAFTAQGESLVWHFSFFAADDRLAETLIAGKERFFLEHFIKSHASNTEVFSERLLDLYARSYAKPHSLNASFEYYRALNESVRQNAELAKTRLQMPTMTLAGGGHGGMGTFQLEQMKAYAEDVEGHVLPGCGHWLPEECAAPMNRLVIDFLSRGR
Assay name: Secondary screen (sextuplicate) with fluorogenic substrate CMNGC;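 note: purified enzyme assay in 96-well plates, 200 µL volume, fluorescence recorded each minute across a 60 min reaction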
Assay type: biochemical
Condition label: read-out: % Inhibition, plate 5
Structures can show the parent of a compound that is named as a salt.
Parameter: inhibition at 10 µM

compound="COC(=O)/C=C/C(=O)OC [Dimethyl fumarate]" study_target="Cif (Pseudomonas aeruginosa (strain UCBPP-PA14), UniProt A0A0H2ZD27)" parameter="inhibition at 10 µM" recorded_result=9%
compound=S=c1nc[nH]c2nc[nH]c12 study_target="Cif (Pseudomonas aeruginosa (strain UCBPP-PA14), UniProt A0A0H2ZD27)" parameter="inhibition at 10 µM" recorded_result=15%
compound="NC(CO)C(=O)NNCc1ccc(O)c(O)c1O (centres unmarked) [Benserazide hydrochloride]" study_target="Cif (Pseudomonas aeruginosa (strain UCBPP-PA14), UniProt A0A0H2ZD27)" parameter="inhibition at 10 µM" recorded_result=78%
compound=CCCCCCCCCCCCCCCCOP(=O)([O-])OCC[N+](C)(C)C study_target="Cif (Pseudomonas aeruginosa (strain UCBPP-PA14), UniProt A0A0H2ZD27)" parameter="inhibition at 10 µM" recorded_result=11%
compound=C[C@]12CCC(=O)C=C1C=C[C@@H]1[C@@H]2CC[C@@]2(C)[C@H]1CC[C@@]21CCC(=O)O1 study_target="Cif (Pseudomonas aeruginosa (strain UCBPP-PA14), UniProt A0A0H2ZD27)" parameter="inhibition at 10 µM" recorded_result=28%
compound=CC(=O)[C@@]1(O)CC[C@H]2[C@@H]3C[C@H](C)C4=CC(=O)C=C[C@]4(C)[C@@]3(F)[C@@H](O)C[C@@]21C study_target="Cif (Pseudomonas aeruginosa (strain UCBPP-PA14), UniProt A0A0H2ZD27)" parameter="inhibition at 10 µM" recorded_result=21%
compound=Cc1c(Nc2ncccc2C(=O)O)cccc1C(F)(F)F study_target="Cif (Pseudomonas aeruginosa (strain UCBPP-PA14), UniProt A0A0H2ZD27)" parameter="inhibition at 10 µM" recorded_result=19%
compound=C=CC1=C(C)c2cc3[nH]c(cc4nc(cc5[nH]c(cc1n2)c(C)c5CCC(=O)O)C(CCC(=O)O)=C4C)c(C)c3C=C study_target="Cif (Pseudomonas aeruginosa (strain UCBPP-PA14), UniProt A0A0H2ZD27)" parameter="inhibition at 10 µM" recorded_result=28%
